Assay: Long-term stability (ICH), 25° C./60% RH
Format: physicochemical
Settings: 25° C./60% RH; 6 months
quantityKind: Total related substances (%)
Numbers only, in %.

Please give the documented Total related substances of Cc1cc(C)c(-c2ccc(NC(=O)[C@H](Cc3ccc(C(=O)NCCS(=O)(=O)[O-])cc3)c3ccc(-c4ccc(C(C)(C)C)cc4)cc3)cc2)c(C)c1.[Na+] [Polymorph Form A]
0.24

###

Assay: Log P/D by shake-flask method (1-octanol/buffer, HPLC)
Type: physicochemical
Conditions: 1-octanol/buffer; pH range of 1.0 to 11.0; read-out: Log D values
quantityKind: logD

Name the recorded logD of the item Cc1cc(C)c(-c2ccc(NC(=O)[C@H](Cc3ccc(C(=O)NCCS(=O)(=O)[O-])cc3)c3ccc(-c4ccc(C(C)(C)C)cc4)cc3)cc2)c(C)c1.[Na+] [Polymorph Form A] in your answer.
> 4.32

###

Assay: Long-term stability (ICH), 25° C./60% RH
Assay type: physicochemical
Conditions: 25° C./60% RH; 9 months
quantityKind: Total related substances (%)
Answers are plain numbers, in %.

Please look at this molecule and report its Total related substances: Cc1cc(C)c(-c2ccc(NC(=O)[C@H](Cc3ccc(C(=O)NCCS(=O)(=O)[O-])cc3)c3ccc(-c4ccc(C(C)(C)C)cc4)cc3)cc2)c(C)c1.[Na+] [Polymorph Form A]
0.25

###

Test: Log P/D by shake-flask method (1-octanol/buffer, HPLC)
Assay type: physicochemical
Conditions: 1-octanol/buffer; pH 3.0; read-out: Log D Rep.1
quantityKind: logD

Fill in reported logD for this entry: Cc1cc(C)c(-c2ccc(NC(=O)[C@H](Cc3ccc(C(=O)NCCS(=O)(=O)[O-])cc3)c3ccc(-c4ccc(C(C)(C)C)cc4)cc3)cc2)c(C)c1.[Na+] [Polymorph Form A]
> 4.32

###

Experiment: Long-term stability (ICH), 25° C./60% RH
Format: physicochemical
Details: 25° C./60% RH; 36 months
quantityKind: Total related substances (%)
Give bare numbers, in %.

Read off the recorded Total related substances for Cc1cc(C)c(-c2ccc(NC(=O)[C@H](Cc3ccc(C(=O)NCCS(=O)(=O)[O-])cc3)c3ccc(-c4ccc(C(C)(C)C)cc4)cc3)cc2)c(C)c1.[Na+] [Polymorph Form A]
0.3

###

Assay: Long-term stability (ICH), 25° C./60% RH
Format: physicochemical
Conditions: 25° C./60% RH; 0 months
quantityKind: Total related substances (%)
One number for each entry, in %.

Look up Total related substances of Cc1cc(C)c(-c2ccc(NC(=O)[C@H](Cc3ccc(C(=O)NCCS(=O)(=O)[O-])cc3)c3ccc(-c4ccc(C(C)(C)C)cc4)cc3)cc2)c(C)c1.[Na+] [Polymorph Form A] and report it.
0.25

###

Experiment: Log P/D by shake-flask method (1-octanol/buffer, HPLC)
Assay type: physicochemical
Conditions: 1-octanol/buffer; pH 2.0; read-out: Log D Rep.1
quantityKind: logD

Complete the entry with logD for Cc1cc(C)c(-c2ccc(NC(=O)[C@H](Cc3ccc(C(=O)NCCS(=O)(=O)[O-])cc3)c3ccc(-c4ccc(C(C)(C)C)cc4)cc3)cc2)c(C)c1.[Na+] [Polymorph Form A]
> 4.32

###

Experiment: Log P/D by shake-flask method (1-octanol/buffer, HPLC)
Format: physicochemical
Settings: 1-octanol/buffer; pH 4.0; read-out: Log D Rep.1
quantityKind: logD

Using known records, supply logD for Cc1cc(C)c(-c2ccc(NC(=O)[C@H](Cc3ccc(C(=O)NCCS(=O)(=O)[O-])cc3)c3ccc(-c4ccc(C(C)(C)C)cc4)cc3)cc2)c(C)c1.[Na+] [Polymorph Form A]
> 4.32

Where these numbers come from: patent US12208071B2
